system: LXRb:RXRa (NR concentration 270 nM, RXRa partner concentration 90 nM); experiment: PBM binding z-score (relative to random genomic background probes); higher = stronger binding; sequences stand for … in GC…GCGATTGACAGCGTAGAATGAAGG
In this section, each of the sequences is paired with its reported PBM binding z-score.
Please reply with the number alone, leaving off any unit.

[[record]]
residues = "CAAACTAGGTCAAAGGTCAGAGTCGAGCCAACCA"
attribute_measured = "PBM binding z-score"
result = 6.4

[[record]]
residues = "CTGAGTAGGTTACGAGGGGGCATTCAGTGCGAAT"
attribute_measured = "PBM binding z-score"
result = 6.26


API: the following record is the query input.
# query: PBM binding z-score of entry `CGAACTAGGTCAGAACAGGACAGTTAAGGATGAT`
0.73
